Listed below: % CD4^+ ab^+ Donor 1 values for each entry.
MEASURED TARGET: T1, human TNFR2 on cells (human, UniProt P20333 23-461)
T1 construct: whole, on cells; also called TNFR2 on Jurkat clone H6; human TNFR2 on CD4+ and CD8+ T cells
T1 sequence (looked up): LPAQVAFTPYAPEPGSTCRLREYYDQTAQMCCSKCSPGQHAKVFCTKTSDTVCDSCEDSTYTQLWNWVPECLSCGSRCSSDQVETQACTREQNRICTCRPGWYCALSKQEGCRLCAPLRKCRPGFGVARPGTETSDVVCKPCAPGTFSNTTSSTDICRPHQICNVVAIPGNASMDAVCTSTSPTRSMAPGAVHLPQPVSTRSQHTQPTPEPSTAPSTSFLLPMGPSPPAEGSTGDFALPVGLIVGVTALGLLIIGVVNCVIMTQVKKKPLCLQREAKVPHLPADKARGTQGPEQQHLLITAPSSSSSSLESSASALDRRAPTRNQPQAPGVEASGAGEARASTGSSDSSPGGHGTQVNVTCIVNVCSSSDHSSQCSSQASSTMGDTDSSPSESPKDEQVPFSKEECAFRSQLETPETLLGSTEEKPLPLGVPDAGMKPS
PROTOCOL: flow cytometry on human PBMC, antibody at 10 ug/mL, anti-human Fc-PE secondary
MEASUREMENT LABEL: % CD4^+ ab^+ Donor 1 (%)

1) chimeric SBT-002 (antibody, V domains shown, also called chSBT-002) VH: QVTLKESGPGILQPSQTLSLTCSFSGFSLSTSGMGVGWIRQPSGKGLEWLAHIWWDDDKFYNPSLKSQLTISKDTSRNQVFLKLTSVVTADTATYYCARLTGTRYFDYWGQGTTLTVSS VL: DVQMTQSPSSLSASLGGKVTITCKASQDINKFIAWYQHKPGKGPRLLIHYTSTLQPGIPSKFSGSGSGRDYSFSISNLEPEDIATYYCLQYGNLWTFGGGTKLEIT | 47.6
2) chimeric SBT-003 (antibody, V domains shown, also called chSBT-003) VH: QIQLVQSGPELKKPGETVKISCKASGYTFTDYSMHWVKQAPGKGLKWMGWINTETGEPTYADDFKGRFAFSSETSTSTAYLQINNLKNDDTTTYFCATYYGSSYVPDYWGQGTSLTVSS VL: DIVMTQSHKFMSTSVGDRVSITCKASQNVGTAVAWYQHKPGQSPKLLIYWTSSRHTGVPDRFTGSGSGTEFTLTISNVQSEDLADYFCHQYSDYPYTFGGGTKLEIK | 44.4
3) chimeric SBT-004b (antibody, human IgG1, V domains shown, Same heavy chain as chSBT-004 (human IgG1 Fc domain); also called chSBT-004b) VH: EVQLQQSGPEVGRPGSSVKISCKASGYTFTDYIMHWVKQSPGQGLEWIGWVDPEYGSTDYAEKFKKKATLTADTSSNTAYIQLSSLTSEDTATYFCARDDGSYSPFDYWGQGVMVTVSS VL: NIVMTQSPKSMSMSVGERVTLTCKASENVVTYVSWYQQKPEQSPKLLIYGASNRYTGVPDRFTGSGSATDFTLTISSVQAEDLADYHCGQGYSYPYTFGGGTKLEIK | 29.3
4) chimeric SBT-004 (antibody, V domains shown, VH fused to a human IgG1 Fc domain; also called chSBT-004) VH: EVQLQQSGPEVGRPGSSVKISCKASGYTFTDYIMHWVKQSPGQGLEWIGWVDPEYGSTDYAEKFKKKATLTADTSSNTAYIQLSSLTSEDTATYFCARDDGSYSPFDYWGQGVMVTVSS VL: DIQMTQSPPSLSASLGDKVTITCQASQNINKYIAWYQQKPGKAPRLLIRYTSTLESGTPSRFSGSGSGRDYSFSISNVESEDIASYYCLQYVNLLTFGAGTKLEIK | 38.4
